- PROTOCOL: protein stability index of a GFP-peptide fusion (yeast GPS) (PSI 1-4); higher = more stable; sorted into four equal gates, so the index is relative within each strain
- STATED CONDITIONS: san1∆
Entries annotated with measured protein stability index
Give the figure only, with no unit attached.

The examples below pair each entry with its known result.
Reported protein stability index, sequence EEVNRCYLRWQHLRNEH [SNF2] : ____
3.23

Which protein stability index is reported for this sequence? STYKHDRGIANIRNNIE [SRB4]
2.95

What protein stability index value was documented for this sequence, PSAEIREAYIENFAKGE [SWP82] ?
2.58

Find the recorded protein stability index belonging to VFQLPTRLPAFERPAVK [RPC53] and report it.
2.81

So what's the measured protein stability index for this one? SVLKDSDDKTRQLSPHT [PRE1]
2.43

Can you share its protein stability index? I mean this sequence: EQVKDDGTSTEKTFLHL [RPN8]
3.42

// switching to the query sequence
Would you kindly share the measured protein stability index for VVSTDLESIQKTKEAVA [RPL4A] ?
2.9

###

- PROTOCOL: protein stability index of a GFP-peptide fusion (yeast GPS) (PSI 1-4); higher = more stable; sorted into four equal gates, so the index is relative within each strain
- STATED CONDITIONS: doa10∆
Lab note: anything with protein stability index at or over 3 counts as 1.0; the rest go in 0.0.

The examples below pair each entry with its known result.
Hi, just wondering whether DTSYKIDGKTVSYKDYS [SMC1] shows protein stability index of 3 or higher.
0.0

Reported protein stability index at or above 3? IDKLEDLSRIMDWLDNW [ITC1]
0.0

Is it the case that LFVFTEGWPKFQDTLYK [QCR10] has protein stability index reaching or exceeding 3?
1.0

Given FSFGAATPSAKEASQED [YLR335W/NUP2] , state whether its protein stability index is at least 3.
1.0

Evaluate KIKAILESVGIEIEDEK [RPP2A] : protein stability index at minimum 3?
0.0

Check the entry GIRGKLVTIEGALIHKA [SMC1] : does protein stability index equal or exceed 3?
1.0

Continuing:
# bool: protein stability index of QMIQQRHQQLLRSRLQQ [SNF5] >= 3
0.0

Test whether the sequence QQQQQQQQPQPQYNMNM [PGD1] records protein stability index of 3 or higher.
0.0

Exam item: decide whether the reported protein stability index for ESPLSVAIQQGDIKPEF [YML103C/NUP188] is at least 3.
0.0

Kindly determine if protein stability index recorded for ISLVDDIINAVNEIMYK [MTW1] is above or exactly 3.
0.0

Please tell me: is the sequence AQAQAQAQAQVYAQQST [PGD1] at or over 3 in terms of protein stability index?
0.0

###

- PROTOCOL: protein stability index of a GFP-peptide fusion (yeast GPS) (PSI 1-4); higher = more stable; sorted into four equal gates, so the index is relative within each strain
- STATED CONDITIONS: ubr1∆
Could you label it 1 if measured protein stability index is 3 or higher, and 0 otherwise?

Here's what some known entries look like.
Check the entry QEASQVTFIFGELKRGN [MED11] : does protein stability index equal or exceed 3?
0

Has STKTGTPSDLSESGSKL [POP1] a recorded protein stability index greater than or equal to 3?
1

Has SAKNRVVILARAKALGI [RPL32] a recorded protein stability index greater than or equal to 3?
0

---
Item YDEVKKHWGGGILGNKA [RPL8A] with protein stability index of 3 or above?
1

State whether the measured protein stability index reaches 3, counting equality as reaching it, for GSGSRLNRLPAASLGDM [RPL23A]
1

State whether the measured protein stability index reaches 3, counting equality as reaching it, for ALSLHREILCYSKDAKE [FAS2]
0

###

- PROTOCOL: protein stability index of a GFP-peptide fusion (yeast GPS) (PSI 1-4); higher = more stable; sorted into four equal gates, so the index is relative within each strain
- STATED CONDITIONS: ubr1∆
Item-by-item account of protein stability index
Answer with a bare number; do not write a unit.

// solved cases for protein stability index follow
I am curious: what protein stability index value has been reported for DNLLLNLEQINEDLEDG [REC8] ?
3.07

For the sequence shown here, TVVTVVSTAKFSGKYLK [RPL22A] , give the reported protein stability index.
2.96

Look up protein stability index: NHFSLSYKDSGLWGFST [COR1]
3.02

***
What measured protein stability index goes with QVLSQSADPSLLIDQFS [SWI1] ?
2.99

GET /values?readout=protein stability index&item= VTKDLKLRREDEIIVYA [REC8]
2.96

Which protein stability index reading was recorded for the sequence VDINRLKKGEVSLGTSI [PRE3] ?
1.33

So what does the record say about protein stability index for MFANMKVLGVKDMSPIL [LRP1] ?
1.46

Need protein stability index, item RGTTAVLKESIVNICDI [PUP1]
1.79

Would you kindly share the measured protein stability index for QHQEEPLLSLDVTPISM [RPN4] ?
2.65

Quick one: protein stability index of SKINELSYYVEETNVDI [SMC4] ?
2.99

Given VDAYRRLENKLSEIESL [SRP68] , state its recorded protein stability index.
1.68

protein stability index lookup needed for HPAYLFKGLETPLKARQ [YLR018C/POM34] , thanks.
2.08

// query protein stability index value for entry ALEEAKLSDNISICMIL [YDL116W/NUP84]
3.21

Request the reported protein stability index associated with VTVDADIDDILKKGEQK [ISW2]
2.72

###

- PROTOCOL: protein stability index of a GFP-peptide fusion (yeast GPS) (PSI 1-4); higher = more stable; sorted into four equal gates, so the index is relative within each strain
- STATED CONDITIONS: ubr1∆
Binning of protein stability index into classes: low = under 2, moderate = from 2 up to 3, high = 3 and over

Reference set (2 entries):
Which protein stability index category applies to AQKNTQSYGGRPYGVGL [PRE5] here?
high

Record FDKVIYHLHPTFANPNR [TAF14] — which class?
low

***
// return the class label for NENSNCLLSIPKSTKGK [YML103C/NUP188]
moderate

Place this sequence in its band: DGKLEPSTRSNFILEVF [YJL039C/NUP192]
low

# bin lookup: classify PSQGMVVEISNGNTSSK [FAS1] by its protein stability index
high

Bin? EFLPLSLHILMIFWNDI [SRB8]
low

Assign a bin to TLQLGQEFQLKQINHQG [RPB4]
high

Bin this entry: EAVEIPVNSADGKEDVE [SME1]
moderate

Just checking, what class would you give RVMKSLSINEKDFVTMA [YCG1] here?
moderate

Class? Entry: RTAKAYLKVSEEEIKKF [PRP8]
high

Pick a category. Item: QDSTSENVKIINYLLTL [RPN2]
moderate

Returns: class label. Input: ELLLTTLSVSHGINLQN [SSN2]
moderate

# bin lookup: classify VTDKYTAKKTNRSAYDS [YDL088C/ASM4] by its protein stability index
moderate

Sort AYAQVEIQPRANIQLDF [FAS2] into one of the categories.
high

Quick check: band for KDKFNQIPLHRAASVGS [NAS6]
moderate

Assign a bin to YEAGASHGNPVVDFLKR [FAS1]
high

Which class does KNPKFSNAFYSVLRDTL [SMC4] fall in?
moderate

Quick check: band for GKRQLMKAVGEYMKRHP [SEC65]
moderate

###

In this section we review reported protein stability index values for a set of sequences.
- PROTOCOL: protein stability index of a GFP-peptide fusion (yeast GPS) (PSI 1-4); higher = more stable; sorted into four equal gates, so the index is relative within each strain
- STATED CONDITIONS: san1∆
Give only the figure.

Please look up its protein stability index: EEDISDLWNNFGNIMDN [RRP6]
3.02

What value of protein stability index has been recorded for this entry: NNPDMMIQPPQQGQNMS [ROX3]
3.05

Look up protein stability index for this sequence: EEGINKFKKEKFDIIIV [SRP54]
2.92

Fill blank: measured protein stability index of the sequence FNYVAVGDVSNLPYLDE [QCR2] is ____.
2.98

Give the measured protein stability index of ESKFILEALRQNYRLDG [RRP45] .
2.95

***
I am curious: what protein stability index value has been reported for YSPTSPSYSPTSPGYSP [RPO21] ?
2.95

###

- PROTOCOL: protein stability index of a GFP-peptide fusion (yeast GPS) (PSI 1-4); higher = more stable; sorted into four equal gates, so the index is relative within each strain
- STATED CONDITIONS: doa10∆
EXPERIMENTAL ENDPOINT: protein stability index
Form field (numeric): enter value without unit.

Sample IAKTFTVDVSSPTENGV [RPL22A] — what was its protein stability index?
3.04

So what's the measured protein stability index for this one? ILDGLTVRLVNLFSSTG [SRB2]
3.1

Can you share its protein stability index? I mean this sequence: PFIKSESKPFSSDALSK [SIR4]
3.17

// protein stability index lookup, key: AVQNESVSSPIELNFDA [QCR2]
2.95

Next:
Bench note: what protein stability index did GNSESKVEKGVNIEPFN [LIN1] show?
3.7

What value of protein stability index has been reported for the following sequence? AAFKDIAKRQFKEILTV [RRP40]
2.27

Record request: protein stability index value, item KAAAGAGSAALKIIHDT [RPO31]
3.45

Tell me the measured protein stability index of TVEALDFREKALYIAMM [RET1] , please.
2.73

# get_value(readout='protein stability index', item= NLCGDISLEALNFYITN [SIR3] )
2.55

# protein stability index lookup, item TINGKVNGRTKSNTIPV [GAL11]
3

Which protein stability index value is on record for FPKTTVAALRFTAGARA [RPL18A] ?
1.58

Look up protein stability index: KEPRLVIVTDPRSDAQA [RPS0A]
2.56

The measured values listed here are drawn from the supplement of paper PMC9732359.
